# System Name: Focal adhesion kinase 1 (Homo sapiens)
# Test Method Notes: small-molecule microarray binders of FAK, primary screen, biochemical, 635/667 nm fluorescence, BSA, DTT (AID 1130);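 note: composite of spot emission at 667 nm and signal to noise over triplicate slides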
# Experimental Setup: PTK2 binding, 635 nm fluorescence, higher = more signal
Lab note: anything with composite z-score at or over 0.1 counts as Criterion met; the rest go in Criterion not met.

Determine whether this compound has composite z-score no lower than 0.1: CC(CCN1CCCCc2nc(C)c(C)cc21)=NO[C@H](C)c1cn([C@H](CO)Cc2ccccc2)nn1
Criterion not met

Determine whether this compound has composite z-score no lower than 0.1: COc1ccc(O[C@H]2C=C[C@@H](c3ccccc3)O[C@@H]2CON=CC[C@@H]2C=C[C@H](OC(C)=O)[C@@H](COC(C)=O)O2)cc1
Criterion met

Determine whether this compound has composite z-score no lower than 0.1: CCOC(=O)[C@H](Cc1ccccc1)NC(=O)OC1CC(CCC2CC(CC)=NO2)OC2(CCCC(COC(=O)NCCC(C)C)O2)C1 (stereo partly specified)
Criterion met

Determine whether this compound has composite z-score no lower than 0.1: COC(=O)NCC=Cc1nc(CCCO)co1
Criterion not met

Determine whether this compound has composite z-score no lower than 0.1: C[C@@H]1C=CCC(=O)OC[C@H]2O[C@@H](C=C[C@@H]2O)[C@H](C)C=CCC(=O)OC1
Criterion met

Determine whether this compound has composite z-score no lower than 0.1: COC(=O)CC=C[C@@H](C)[C@@H](C=NO[C@@H](C)c1cc(-c2c(C)cc(C)cc2C)no1)NS(=O)(=O)c1ccc(C)cc1
Criterion not met

Determine whether this compound has composite z-score no lower than 0.1: C[C@H](ON=C1[C@H]2CCn3c(=O)n(-c4ccccc4)c(=O)n3[C@H]2[C@H](O)[C@@H]2O[C@H]12)c1cn([C@H](CO)Cc2ccccc2)nn1
Criterion met

Determine whether this compound has composite z-score no lower than 0.1: CCc1cc2c(nc1CC)CCN(CCC(C)=NO[C@H](C)c1cn([C@H](CO)Cc3ccccc3)nn1)C2
Criterion met

Determine whether this compound has composite z-score no lower than 0.1: COc1ccc(COC(=O)NN=C2C[C@@H](O)[C@@H](O)[C@@H]3[C@@H]4C(=O)N(c5cccc(Oc6ccccc6)c5)C(=O)[C@@H]4CC[C@@H]23)cc1
Criterion not met

Determine whether this compound has composite z-score no lower than 0.1: CCC1=NOC(CCC2CC(OC(=O)NCc3cccc4c3OCO4)CC3(CCCC(COC(=O)NCCc4ccccc4OC)O3)O2)C1 (stereo unspecified)
Criterion met

Determine whether this compound has composite z-score no lower than 0.1: C=CC[C@@H]1C=C[C@H](ON=C2[C@H]3CCn4c(=O)n(-c5ccccc5)c(=O)n4[C@H]3[C@H](O)[C@@H]3O[C@H]23)[C@@H](CO)O1
Criterion not met

Determine whether this compound has composite z-score no lower than 0.1: CO[C@@H]1COC(=O)CC=C[C@@H](C)[C@H](OC)COC(=O)[C@@H](C)COC(=O)CC=C[C@H]1C
Criterion not met

Determine whether this compound has composite z-score no lower than 0.1: CON=C[C@@H](C)[C@H](OCc1ccccc1)C(C)C
Criterion met

Determine whether this compound has composite z-score no lower than 0.1: CCOC(=O)[C@H](CC(C)C)NC(=O)CCC1CC(OC(=O)NCc2ccc3c(c2)OCO3)CC2(CCCC(COC(=O)NCCCN3CCCC3=O)O2)O1 (stereo partly specified)
Criterion met

Determine whether this compound has composite z-score no lower than 0.1: O=C1CCCC=C1C(O)CCOC(c1ccccc1)(c1ccccc1)c1ccccc1 (stereo unspecified)
Criterion not met

Determine whether this compound has composite z-score no lower than 0.1: CCOC(=O)[C@H](Cc1ccccc1)NC(=O)CCC1CC(OC(=O)NCCc2ccc(F)cc2)CC2(CCCC(COC(=O)NCc3ccccc3)O2)O1 (stereo partly specified)
Criterion met
